Reported Ki values are given for each entry in this list.
Tested on: cloned human dopamine D3 receptors (Homo sapiens, UniProt P35462)
Construct: expressed in transfected cells; membrane homogenate
Sequence (P35462 whole entry): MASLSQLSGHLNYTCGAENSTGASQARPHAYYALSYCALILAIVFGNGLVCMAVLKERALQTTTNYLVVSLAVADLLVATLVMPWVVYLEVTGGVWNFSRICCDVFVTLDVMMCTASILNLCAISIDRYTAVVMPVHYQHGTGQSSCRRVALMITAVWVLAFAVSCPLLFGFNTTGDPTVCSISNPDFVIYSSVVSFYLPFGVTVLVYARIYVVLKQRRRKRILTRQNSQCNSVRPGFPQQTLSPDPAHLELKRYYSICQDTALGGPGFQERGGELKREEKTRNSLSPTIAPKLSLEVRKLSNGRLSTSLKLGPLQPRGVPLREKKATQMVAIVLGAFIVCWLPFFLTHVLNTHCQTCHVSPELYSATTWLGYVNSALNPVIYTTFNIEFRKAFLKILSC
Test name: [N-Methyl-3H]Spiroperidol binding to cloned human dopamine D3 receptors (Protocol 1)
Condition parameters: Table 2; read-out: D3K1
Your answer should be a plain number; it is taken to be in nM.

Below are worked cases with known answers.
O=C(NCCCN1CCCN(c2csc3cc(F)ccc23)CC1)c1cccc(Cl)c1 [compound 827135] :: 141
O=C(N[C@H](CO)CCCN1CCN(c2csc3cc(C(F)(F)F)ccc23)CC1)c1cnccn1 [compound 815702] :: 439
O=C(NCCCCN1CCCN(c2csc3cc(F)ccc23)CC1)c1ccc2nonc2c1 [compound 826699] :: 6.73
Cc1c(C(=O)NCCC(CO)CN2CCN(c3csc4cc(C(F)(F)F)ccc34)CC2)cnn1-c1ccccc1 (stereo not shown) [818634ES] :: 305
O=C(Cc1cccs1)NCCCCN1CCN(c2c(-c3ccccc3)sc3cc(F)ccc23)CC1 [compound 815884] :: 296
COc1cccc2cc(C(=O)NCCCCN3CCCN(c4csc5cc(F)ccc45)CC3)oc12 [compound 827121] :: 21.6
COc1ccc(/C=C/C(=O)NC/C=C\CN2CCN(c3csc4cc(C(F)(F)F)ccc34)CC2)cc1 [compound 827735] :: 24.4
O=C(NCCCCN1CCCN(c2csc3cc(F)ccc23)CC1)c1cccc2cccnc12 [compound 817266] :: 8.73
COc1ccc(/C=C/C(=O)NC/C=C/CN2CCN(c3csc4cc(C(F)(F)F)ccc34)CC2)cc1 [compound 827739] :: 22.4
O=C(NCCCCN1CCN(c2c(-c3ccccc3)sc3cc(F)ccc23)CC1)c1ccc(-c2ccccc2)cc1 [compound 815872] :: 567

[in] Fill in: Ki of O=C(NCCCCN1CCN(c2c(-c3ccccc3)sc3cc(F)ccc23)CC1)c1ccc(C(F)(F)F)cc1 [compound 815871] is ___
[out] 796

[in] Fill in: Ki of O=C(N[C@H](CO)CCCN1CCN(c2csc3cc(C(F)(F)F)ccc23)CC1)c1cc2ccccc2[nH]1 [compound 815698] is ___
[out] 329

[in] Fill in: Ki of O=C(NCCCCN1CCCN(c2csc3cc(F)ccc23)CC1)c1cc2cc(OC(F)(F)F)ccc2o1 [compound 827127] is ___
[out] 74.3

[in] Fill in: Ki of CCN(CC)c1ccc2cc(C(=O)NCCCCN3CCCN(c4csc5cc(F)ccc45)CC3)oc2c1 [compound 827123] is ___
[out] 107

[in] Fill in: Ki of O=C(NCCCCN1CCN(c2c(-c3ccccc3)sc3cc(F)ccc23)CC1)c1cccc(F)c1 [compound 815870] is ___
[out] 28.4

[in] Fill in: Ki of O=C(N[C@@H](CO)CCCN1CCN(c2csc3cc(C(F)(F)F)ccc23)CC1)c1cc2ccccc2[nH]1 [compound 815674] is ___
[out] 314
